- System: Staphylococcus aureus
- test protocol: Minimum inhibitory concentration tested against methicillin resistant Staphylococcus aureus 494 strain (MRSA 494)
- Type: functional
Measured MIC accompanies every entry in the list below.

| chemical structure | target entity | value relation sign | MIC (µg/mL) |
| --- | --- | --- | --- |
| CCn1cc(C(=O)O)c(=O)c2cnc(N3CCN(Cc4ccc(CN5CCN(c6cc7c(cc6F)c(=O)c(C(=O)O)cn7C6CC6)CC5)cc4)CC3)nc21 | Staphylococcus aureus | = | 0.125 |
| CCn1cc(C(=O)O)c(=O)c2cc(F)c(N3CCNCC3)cc21 | Staphylococcus aureus | = | 2 |
| O=C(O)c1cn(C2CC2)c2cc(N3CCN(Cc4cccc(CN5CCN(c6cc7c(cc6F)c(=O)c(C(=O)O)cn7C6CC6)CC5)c4)CC3)c(F)cc2c1=O | Staphylococcus aureus | < | 0.03 |
| O=C(O)c1cn(C2CC2)c2cc(N3CCN(Cc4cccc(CN5CCN(c6cc7c(cc6F)c(=O)c(C(=O)O)cn7C6CC6)CC5)n4)CC3)c(F)cc2c1=O | Staphylococcus aureus | = | 0.06 |
| O=C(O)c1cn(C2CC2)c2cc(N3CCN(Cc4ccc(CN5CCN(c6cc7c(cc6F)c(=O)c(C(=O)O)cn7C6CC6)CC5)cc4)CC3)c(F)cc2c1=O | Staphylococcus aureus | = | 0.125 |
| O=C(O)c1cn(C2CC2)c2cc(N3CCNCC3)c(F)cc2c1=O | Staphylococcus aureus | = | 0.5 |
| CCn1cc(C(=O)O)c(=O)c2cc(F)c(N3CCN(C/C=C/CN4CCN(c5cc6c(cc5F)c(=O)c(C(=O)O)cn6CC)CC4)CC3)cc21 | Staphylococcus aureus | = | 0.125 |

###

Measured MIC accompanies every entry in the list below.
- Test system: Staphylococcus aureus
- test protocol: Minimum inhibitory concentration tested against methicillin resistant Staphylococcus aureus 494 strain (MRSA 494)
- Format: functional
value kind: MIC (µg/mL)

| chemical structure | target entity | value observed |
| --- | --- | --- |
| CCn1cc(C(=O)O)c(=O)c2cnc(N3CCN(Cc4ccc(CN5CCN(c6ncc7c(=O)c(C(=O)O)cn(CC)c7n6)CC5)cc4)CC3)nc21 | Staphylococcus aureus | 2 |
| O=C(O)c1cn(C2CC2)c2cc(N3CCN(C/C=C/CN4CCN(c5cc6c(cc5F)c(=O)c(C(=O)O)cn6C5CC5)CC4)CC3)c(F)cc2c1=O | Staphylococcus aureus | 0.125 |
| CCn1cc(C(=O)O)c(=O)c2cc(F)c(N3CCN(Cc4ccc(CN5CCN(c6cc7c(cc6F)c(=O)c(C(=O)O)cn7CC)CC5)cc4)CC3)cc21 | Staphylococcus aureus | 0.06 |

###

- Test system: Staphylococcus aureus
- test protocol: Minimum inhibitory concentration tested against Staphylococcus aureus 1199 strain
- Assay type: functional
Measured log10 MIC accompanies every entry in the list below.
value kind: log10 MIC (log10 of the value in µg/mL)

| chemical structure | target entity | value kind | value observed |
| --- | --- | --- | --- |
| O=C(O)c1cn(C2CC2)c2cc(N3CCN(C/C=C/CN4CCN(c5cc6c(cc5F)c(=O)c(C(=O)O)cn6C5CC5)CC4)CC3)c(F)cc2c1=O | Staphylococcus aureus | log10 MIC | -1.52 |
| O=C(O)c1cn(C2CC2)c2cc(N3CCN(Cc4cccc(CN5CCN(c6cc7c(cc6F)c(=O)c(C(=O)O)cn7C6CC6)CC5)c4)CC3)c(F)cc2c1=O | Staphylococcus aureus | log10 MIC | -1.22 |
| CCn1cc(C(=O)O)c(=O)c2cc(F)c(N3CCN(C/C=C/CN4CCN(c5cc6c(cc5F)c(=O)c(C(=O)O)cn6CC)CC4)CC3)cc21 | Staphylococcus aureus | log10 MIC | -0.60 |
| CCn1cc(C(=O)O)c(=O)c2cc(F)c(N3CCN(Cc4ccc(CN5CCN(c6cc7c(cc6F)c(=O)c(C(=O)O)cn7CC)CC5)cc4)CC3)cc21 | Staphylococcus aureus | log10 MIC | -1.22 |
| CCn1cc(C(=O)O)c(=O)c2cnc(N3CCN(Cc4ccc(CN5CCN(c6ncc7c(=O)c(C(=O)O)cn(CC)c7n6)CC5)cc4)CC3)nc21 | Staphylococcus aureus | log10 MIC | -0.30 |
| O=C(O)c1cn(C2CC2)c2cc(N3CCN(Cc4ccc(CN5CCN(c6cc7c(cc6F)c(=O)c(C(=O)O)cn7C6CC6)CC5)cc4)CC3)c(F)cc2c1=O | Staphylococcus aureus | log10 MIC | -0.90 |
| CCn1cc(C(=O)O)c(=O)c2cc(F)c(N3CCNCC3)cc21 | Staphylococcus aureus | log10 MIC | -0.30 |
| O=C(O)c1cn(C2CC2)c2cc(N3CCN(Cc4ccc(-c5ccc(CN6CCN(c7cc8c(cc7F)c(=O)c(C(=O)O)cn8C7CC7)CC6)cc5)cc4)CC3)c(F)cc2c1=O | Staphylococcus aureus | log10 MIC | 0.60 |

###

- Test system: Staphylococcus aureus
- test protocol: Minimum inhibitory concentration tested against Staphylococcus aureus 1199 strain
- Format: functional
Measured MIC accompanies every entry in the list below.
value kind: MIC

| chemical structure | target entity | value observed |
| --- | --- | --- |
| CCn1cc(C(=O)O)c(=O)c2cc(F)c(N3CCN(Cc4ccc(CN5CCN(c6cc7c(cc6F)c(=O)c(C(=O)O)cn7C6CC6)CC5)cc4)CC3)cc21 | Staphylococcus aureus | < 0.03 µg/mL |
| O=C(O)c1cn(C2CC2)c2cc(N3CCN(Cc4cccc(CN5CCN(c6cc7c(cc6F)c(=O)c(C(=O)O)cn7C6CC6)CC5)n4)CC3)c(F)cc2c1=O | Staphylococcus aureus | < 0.03 µg/mL |
| CCn1cc(C(=O)O)c(=O)c2cnc(N3CCNCC3)nc21 | Staphylococcus aureus | > 16 µg/mL |
| CCn1cc(C(=O)O)c(=O)c2cnc(N3CCN(Cc4ccc(CN5CCN(c6cc7c(cc6F)c(=O)c(C(=O)O)cn7C6CC6)CC5)cc4)CC3)nc21 | Staphylococcus aureus | < 0.03 µg/mL |
